experiment: Oral bioavailability in mouse at 5 mg/kg
Format: ADME, organism-based
particulars: in vivo
measured attribute: bioavailability (%)
Your answer is read as %, so omit the unit and give the number.

Check out these entries, answers already filled in.
{"columns": ["test smiles", "bioavailability [%]"],
 "data": [
  ["CCNC(=O)Nc1ccc(-c2nc3c(c(N4CCOC[C@@H]4C)n2)C[C@@H]2CC[C@H]3N2C(=O)COC)cc1", 47],
  ["CCNC(=O)Nc1ccc(-c2nc3c(c(N4CCOC[C@@H]4C)n2)[C@@H]2CC[C@H](C3)N2C)cc1", 82],
  ["CCNC(=O)Nc1ccc(-c2nc3c(c(N4CCOC[C@@H]4C)n2)C[C@@H]2CC[C@H]3N2C)cc1", 133]
]}

Let's switch to this compound now.
Field bioavailability (entry CCNC(=O)Nc1ccc(-c2nc3c(c(N4CCOC[C@@H]4C)n2)C[C@@H]2CC[C@H]3N2C(C)=O)cc1 ) reads 40

* * *

Test system: PC-3
experiment: Cytotoxicity against human PC3 cells after 4 days by CellTiter-Glo assay
particulars: PC-3, 96 h
# label = bin(measured EC50), where bins are bin 0 = under 0.03 µM, bin 1 = from 0.03 µM up to 0.2 µM, bin 2 = 0.2 µM and over

Field: class (EC50) — entry: CCNC(=O)Nc1ccc(-c2nc3c(c(N4CCOC[C@@H]4C)n2)C[C@@H]2CC[C@H]3N2C(C)(C)C(=O)NC)cc1 bin 0

Field: class (EC50) — entry: CCNC(=O)Nc1ccc(-c2nc3c(c(N4CCOC[C@@H]4C)n2)[C@H]2CC[C@@H](C3)N2C)cc1 bin 1

Field: class (EC50) — entry: CCNC(=O)Nc1ccc(-c2nc3c(c(N4CCOC[C@@H]4C)n2)C[C@@H]2CC[C@H]3N2C)cc1 bin 1

* * *

Reported pEC50 by item:
experiment: Cytotoxicity against human MCF7 neo/Her2 cells after 3 days by CellTiter-Glo assay
particulars: MCF7, 72 h
Convention used: pEC50 is expressed as -log10 of the molar concentration.

{"columns": ["test smiles", "pEC50"],
 "data": [
  ["CCNC(=O)Nc1ccc(-c2nc3c(c(N4CCOC[C@@H]4C)n2)C[C@@H]2CC[C@H]3N2C(C)(C)C(=O)NC)cc1", 7.77],
  ["CCNC(=O)Nc1ccc(-c2nc3c(c(N4CCOC[C@@H]4C)n2)C[C@H]2CC[C@@H]3N2C)cc1", 6.31],
  ["CCNC(=O)Nc1ccc(-c2nc3c(c(N4CCOC[C@@H]4C)n2)[C@H]2CC[C@@H](C3)N2C(C)=O)cc1", 6.34]
]}

Let's switch to this molecule now.
Field pEC50 (entry CCNC(=O)Nc1ccc(-c2nc3c(c(N4CCOC[C@@H]4C)n2)[C@H]2CC[C@@H](C3)N2CC)cc1 ) reads 6.74

* * *

Reported fraction unbound at 4 h, 5 µM by item:
experiment: Plasma protein binding in mouse at 5 uM after 4 hrs by rapid equilibrium dialysis
Assay type: ADME, cell-free
particulars: read-out: PPB (converted)
API doc: respond with a numeric literal and nothing else, no unit.

{"columns": ["test smiles", "fraction unbound at 4 h, 5 µM"],
 "data": [
  ["CCNC(=O)Nc1ccc(-c2nc3c(c(N4CCOC[C@@H]4C)n2)C[C@@H]2CC[C@H]3N2C2COC2)cc1", 0.13],
  ["CCNC(=O)Nc1ccc(-c2nc3c(c(N4CCOC[C@@H]4C)n2)C[C@@H]2CC[C@H]3N2C(=O)COC)cc1", 0.07],
  ["CCNC(=O)Nc1ccc(-c2nc3c(c(N4CCOC[C@@H]4C)n2)C[C@@H]2CC[C@H]3N2C(C)=O)cc1", 0.02],
  ["CCNC(=O)Nc1ccc(-c2nc3c(c(N4CCOC[C@@H]4C)n2)C[C@@H]2CC[C@H]3N2S(C)(=O)=O)cc1", 0.05]
]}

Field fraction unbound at 4 h, 5 µM (entry CCNC(=O)Nc1ccc(-c2nc3c(c(N4CCOC[C@@H]4C)n2)[C@H]2CC[C@@H](C3)N2C)cc1 ) reads 0.32

Field fraction unbound at 4 h, 5 µM (entry CCNC(=O)Nc1ccc(-c2nc3c(c(N4CCOC[C@@H]4C)n2)[C@@H]2CC[C@H](C3)N2C)cc1 ) reads 0.54

Field fraction unbound at 4 h, 5 µM (entry CCNC(=O)Nc1ccc(-c2nc3c(c(N4CCOC[C@@H]4C)n2)C[C@@H]2CC[C@H]3N2C)cc1 ) reads 0.14
